The values you see were collected from ChEMBL document CHEMBL2311273.

Target: Multidrug and toxin extrusion protein 1 (Homo sapiens, UniProt Q96FL8)
Sequence (Q96FL8 whole entry): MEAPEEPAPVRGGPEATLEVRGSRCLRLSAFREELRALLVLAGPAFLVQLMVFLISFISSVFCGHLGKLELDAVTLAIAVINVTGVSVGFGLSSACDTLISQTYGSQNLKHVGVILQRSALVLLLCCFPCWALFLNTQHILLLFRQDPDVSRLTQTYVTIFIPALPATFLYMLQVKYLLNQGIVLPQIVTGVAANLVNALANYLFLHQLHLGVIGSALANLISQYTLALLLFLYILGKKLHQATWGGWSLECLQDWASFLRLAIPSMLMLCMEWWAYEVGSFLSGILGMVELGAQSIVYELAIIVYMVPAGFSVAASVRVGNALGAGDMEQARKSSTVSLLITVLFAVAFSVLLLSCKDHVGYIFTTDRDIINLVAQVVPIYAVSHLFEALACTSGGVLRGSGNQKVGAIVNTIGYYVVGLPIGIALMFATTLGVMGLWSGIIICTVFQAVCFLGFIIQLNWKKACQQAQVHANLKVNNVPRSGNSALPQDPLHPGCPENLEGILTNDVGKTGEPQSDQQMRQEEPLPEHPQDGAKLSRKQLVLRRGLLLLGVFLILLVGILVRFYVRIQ
Test: Inhibition of human MATE1-mediated ASP+ uptake expressed in HEK293 cells after 1.5 mins by fluorescence assay
Format: cell-based
readout-type: IC50 (µM)
Reply numerically in µM, unit not repeated.

Query: IC50; subject: CCCc1nc2c(C)cc(-c3nc4ccccc4n3C)cc2n1Cc1ccc(-c2ccccc2C(=O)O)cc1
17.9

Query: IC50; subject: Clc1cccc(Cl)c1N=C1NCCN1
33.3

Query: IC50; subject: [H]/N=C(\N/C(=N/[H])NCCCCCCNC(=N)NC(=N)Nc1ccc(Cl)cc1)Nc1ccc(Cl)cc1
0.7

Query: IC50; subject: CNS(=O)(=O)Cc1ccc2[nH]cc(CCN(C)C)c2c1
6.7

Query: IC50; subject: CC(N)C12CC3CC(CC(C3)C1)C2 (configuration not stated)
7.3

Query: IC50; subject: CN1C[C@H](C(=O)N[C@]2(C)O[C@@]3(O)[C@@H]4CCCN4C(=O)[C@H](Cc4ccccc4)N3C2=O)C[C@@H]2c3cccc4[nH]cc(c34)C[C@H]21 [DIHYDROERGOTAMINE]
2.8
